ASSAY READOUT: melting point

As a guide, the following entries are already answered.
CCOC(=O)c1cc(=O)c2c(OCC(O)COc3cccc(O)c3C(C)=O)cccc2o1 (stereo not given) = 145 to 148 °C
Cc1ccc(C)n1CCNC(=S)Nc1ccc(C(=O)O)cc1 = 174 to 175 °C
CC1N=C(c2ccccc2F)c2cc(C(C)N)ccc2N(C)C1=O (stereo not given) = 48 to 50 °C
CCC1=NNC(C)=C(C(=O)OC(C)(C)C)C1c1cccc([N+](=O)[O-])c1 (stereo not given) = 122 °C
CC(C)C1=Cc2cc(OCC(=O)O)c(Cl)c(Cl)c2C1=O = 176 °C
O=S(=O)(ON=C1CCCc2ccccc21)c1ccc(O)cc1 = 141 to 142 °C
c1ccc(-n2c(-c3cccnc3)nc3ccccc32)cc1 = 110 to 112 °C
COc1ccc(C(=O)Cc2c(Cl)cncc2Cl)c2c1OCC2C (stereo not given) = 99 to 104 °C
CC(Cc1cc(F)cc2c(Cl)coc12)NC(=O)OC(C)(C)C (stereo not given) = 127 to 129 °C
COC(=O)c1c(Cc2ccc(S(=O)(=O)CCO)cc2)c(=O)c2ccc(Cl)cc2n1-c1ccccc1 = 172 to 174 °C

Below are some compounds; for each one, tell me its melting point.
1. Nc1nc(Cn2c(-c3ccc(Oc4cncnc4)cc3)ccc2-c2ccccc2Cl)ccc1OCCO
2. Cc1c(Cc2ccc([N+](=O)[O-])cc2)c(=O)oc2cc(O)cc(O)c12
3. COc1ccc(C2Sc3c(ccc4ccccc34)N(CCN(C)C)C(=O)C2OC(=O)c2cccnc2)cc1 (stereo not given)

["78 to 81 °C", "280 to 285 °C", "144 to 145 °C"]

Please state, for each entry, its recorded melting point.
1. C[C@@H]1C(=O)N(CO)Cc2ccccc2[C@@H]1C (relative stereo)
2. N[C@@H](Cc1ccccc1C(F)(F)F)[C@H](O)c1ccc(F)cc1 (racemic)
3. O=[N+]([O-])c1cccnc1NCCc1c[nH]cn1
4. CCn1nc(OCC(=O)C(C)(C)C)c(-c2ccccc2)c1-c1ccc(S(C)(=O)=O)cc1
5. CCCCOc1ccc(S(=O)(=O)N2CCN(C)CC2)cc1-c1nc2cc3nc[nH]c3cc2c(=O)[nH]1

1: 91 to 92 °C; 2: 57 to 58 °C; 3: 178 to 180 °C; 4: 158 to 161 °C; 5: 124 to 126 °C

Kindly give each listed record's melting point.
1. CC(=CC(=O)O)C(=O)NN
2. CSc1nc(NCc2ccc(-c3ccccc3)cc2)n2ncc(C(C)C)c2n1

281 to 284 °C
134 to 135 °C
